The measured values listed here are drawn from patent US5223526A.

# Tested on: Botrytis cinerea
# Experimental protocol: Eggplant grey mold
# Type: in vivo
# Set-up: key: 0: No disease control; 1: Low level of control; 2: Moderate control; 3: High level of control
# Reported conditions: eggplant sprayed with 500 ppm, inoculated 24 h later, rated after 3-4 days
Recorded Disease Control Rating at 500 ppm by entry
# print the numeric value only

* Cn1cc(C(=O)Nc2ccc(F)cc2C2(C)CCCCC2)c(C(F)(F)F)n1 | 0

Turning to the following compound.
Which Disease Control Rating at 500 ppm is reported for this compound? Cn1cc(C(=O)Nc2ccccc2C2=CCCCC2C(C)(C)C)c(C(F)(F)F)n1 (stereo not drawn)
1

---

# System: Botrytis cinerea
# Experimental protocol: Eggplant grey mold
# Assay type: in vivo
# Design: key: 0: No disease control; 1: Low level of control; 2: Moderate control; 3: High level of control
# Reported conditions: eggplant sprayed with 500 ppm, inoculated 24 h later, rated after 3-4 days
Recorded Disease Control Rating at 500 ppm by entry
# print the numeric value only

• C[C@@H]1CCC[C@H](C)[C@H]1Oc1ccccc1NC(=O)c1cn(C)nc1C(F)(F)F = 0

Which Disease Control Rating at 500 ppm is reported for this compound? Cn1cc(C(=O)Nc2ccccc2C2CCCCCC2)c(C(F)(F)F)n1
2

Which Disease Control Rating at 500 ppm is reported for this compound? Cn1cc(C(=O)Nc2ccccc2C2CCCCCC2)c(I)n1
0

---

# Tested on: Botrytis cinerea
# Experimental protocol: Eggplant grey mold
# Type: in vivo
# Set-up: key: 0: No disease control; 1: Low level of control; 2: Moderate control; 3: High level of control
# Reported conditions: eggplant sprayed with 500 ppm, inoculated 24 h later, rated after 3-4 days
Recorded Disease Control Rating at 500 ppm by entry
# print the numeric value only

Example compounds with recorded Disease Control Rating at 500 ppm:
- Cn1cc(C(=O)Nc2ccccc2[C@@H]2C[C@H]3CC[C@@H]2C3)c(C(F)F)n1 (relative stereo): 1
- Cn1cc(C(=O)Nc2ccccc2C2CCCCC2)c(I)n1: 0

Turning to the following compound.
Param readout= Disease Control Rating at 500 ppm; system= Botrytis cinerea; entry= Cn1cc(C(=O)Nc2ccccc2C2=CCSCC2)c(C(F)F)n1 ; returns value.
1

---

Recorded Disease Control Rating at 500 ppm by entry
# Test system: Botrytis cinerea
# Experimental protocol: Eggplant grey mold
# Assay type: in vivo
# Design: key: 0: No disease control; 1: Low level of control; 2: Moderate control; 3: High level of control
# Reported conditions: eggplant sprayed with 500 ppm, inoculated 24 h later, rated after 3-4 days

• Cc1cccc(NC(=O)c2cn(C)nc2C(F)F)c1C1CCCCC1 [Example 20] = 3

Which Disease Control Rating at 500 ppm is reported for this compound? Cn1cc(C(=O)Nc2ccccc2[C@@H]2C[C@H]3CC[C@@H]2C3)c(Cl)n1 (relative stereo) [Example 52]
0

Which Disease Control Rating at 500 ppm is reported for this compound? Cn1cc(C(=O)Nc2ccccc2C2CCCCCCC2)c(C(F)(F)F)n1 [Example 25]
2

Which Disease Control Rating at 500 ppm is reported for this compound? Cc1nn(C)c(F)c1C(=O)Nc1ccccc1C1CCCCCC1 [Example 113]
3
